These entries and their values trace back to patent US20240325366A1.

- Tested on: Panc 05.04
- ASSAY NAME: antiproliferative activity (OmniScreen)
- Assay type: cell-based
- CONDITION SUMMARY: Panc 05.04, Pancreas, 72 hours; read-out: Absolute IC50
PARAMETER: pIC50
// field semantics: pIC50 = negative decimal log of concentration (mol/L)

Q: Hello, please tell me recorded pIC50 for this one: COc1cc(F)ccc1-c1cc(Nc2cc(CS(C)(=N)=O)ccn2)ncc1F (single isomer, unassigned; (+)) [Compound 1′]
A: 7.42

---

- Test system: UM-UC-3
- ASSAY NAME: antiproliferative activity (OmniScreen)
- Type: cell-based
- CONDITION SUMMARY: Homo sapiens, UMUC3; UM-UC-3, Bladder, 72 hours; read-out: Absolute IC50
PARAMETER: IC50 (nM)
Only the number, expressed in nM, is required.

Q: Hello, please tell me recorded IC50 for this one: COc1cc(F)ccc1-c1cc(Nc2cc(CS(C)(=N)=O)ccn2)ncc1F (single isomer, unassigned; (+))
A: 67

---

- System: panel of 500 tumor cell lines
- ASSAY NAME: antiproliferative activity, panel of 500 tumor cell lines (OmniScreen)
- Assay type: cell-based
- CONDITION SUMMARY: N=130 cell lines with mutation data in DepMap; read-out: IC50 top quartile (least sensitive cell lines)
PARAMETER: IC50

Q: Report measured IC50 on panel of 500 tumor cell lines; entry: COc1cc(F)ccc1-c1cc(Nc2cc(CS(C)(=N)=O)ccn2)ncc1F (single isomer, unassigned; (+))
A: ≥ 152 nM

---

- Test system: NCI-H460
- ASSAY NAME: in vitro cytotoxicity, MTT assay
- Format: cell-based
- CONDITION SUMMARY: Homo sapiens; NCI-H460, Lung, KRAS p.Q61H
PARAMETER: IC50 (nM)
Only the number, expressed in nM, is required.

Q: Hello, please tell me recorded IC50 for this one: COc1cc(F)ccc1-c1cc(Nc2cc(CS(C)(=N)=O)ccn2)ncc1F (single isomer, unassigned; (+)) [Compound 1′]
A: 75

---

- System: DV-90
- ASSAY NAME: antiproliferative activity (OmniScreen)
- Type: cell-based
- CONDITION SUMMARY: Homo sapiens; DV-90, Lung, 72 hours; read-out: Absolute IC50
PARAMETER: IC50 (nM)
Only the number, expressed in nM, is required.

Q: Hello, please tell me recorded IC50 for this one: COc1cc(F)ccc1-c1cc(Nc2cc(CS(C)(=N)=O)ccn2)ncc1F (single isomer, unassigned; (+))
A: 90

---

- Test system: HCT8
- ASSAY NAME: in vitro cytotoxicity, MTT assay
- Assay type: cell-based
- CONDITION SUMMARY: Homo sapiens, HCT-8; HCT8, Colorectal, KRAS WT
PARAMETER: IC50 (nM)
Only the number, expressed in nM, is required.

Q: Hello, please tell me recorded IC50 for this one: COc1cc(F)ccc1-c1cc(Nc2cc(CS(C)(=N)=O)ccn2)ncc1F (single isomer, unassigned; (+))
A: 83

---

- Test system: 143B
- ASSAY NAME: antiproliferative activity (OmniScreen)
- Assay type: cell-based
- CONDITION SUMMARY: Homo sapiens, Bone, 72 hours, read-out: Absolute IC50
PARAMETER: IC50 (nM)
Only the number, expressed in nM, is required.

Q: Hello, please tell me recorded IC50 for this one: COc1cc(F)ccc1-c1cc(Nc2cc(CS(C)(=N)=O)ccn2)ncc1F (single isomer, unassigned; (+))
A: 73
